Assign ML-2 %inh to each entry below.
System: ML-2
Parameters: species or system AML cell lines (8); Primary HTS, single concentration about 10 uM, Cell Titer Glo viability; log10 luminescence, per cent inhibition relative to cycloheximide control
Conditions: 72 h, relative to cycloheximide control, log10 luminescence; inhibitor
Structures can show the parent of a compound that is named as a salt.
Respond numerically; units are % and should not be typed.

Task: # ML-2 %inh lookup, item `CCCS(=O)(=O)Nc1ccc(F)c(C(=O)c2c[nH]c3ncc(-c4ccc(Cl)cc4)cc23)c1F`
Output: -0.6517

Task: Returns the measured ML-2 %inh for the input compound. Input: `O=C(Nc1n[nH]c2cc(-c3ccc(F)cc3)ccc12)C1CC1`
Output: 9.118

Task: Which ML-2 %inh is listed for `CS(=O)(=O)CCNCc1cc(-c2cc3c(Nc4ccc(OCc5cccc(F)c5)c(Cl)c4)ncnc3s2)cs1` ?
Output: -1.098

Task: I have this compound here, Cc1cccc(C)c1NC(=O)C(C)N (stereo not shown) [SJ000287515-4, TOCAINIDE HYDROCHLORIDE] , and I need its recorded ML-2 %inh.
Output: 2.731
